Target: T1, N-hCD73-his (N-terminal domain of human CD73, residues 26-336, His tag) (human, UniProt P21589 26-336)
T1 sequence: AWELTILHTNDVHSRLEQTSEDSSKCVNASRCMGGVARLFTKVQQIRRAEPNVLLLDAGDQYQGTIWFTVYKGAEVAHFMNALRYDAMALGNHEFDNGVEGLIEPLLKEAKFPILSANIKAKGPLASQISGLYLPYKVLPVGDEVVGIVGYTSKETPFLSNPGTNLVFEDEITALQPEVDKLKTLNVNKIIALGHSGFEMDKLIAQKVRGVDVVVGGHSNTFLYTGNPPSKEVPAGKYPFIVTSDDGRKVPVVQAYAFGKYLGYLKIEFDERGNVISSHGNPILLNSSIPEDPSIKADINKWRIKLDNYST
Experiment: SPR, mAb captured on protein A
QUANTITY KIND: koff (s⁻¹)
The response must be a number in s⁻¹ with no trailing unit.

INSERT INTO assay_data (binder, quantity_kind, assay_value) VALUES
  ('5F8 (antibody, human IgG1, kappa, V domains shown, IgG1za; VK2 also expressed; also called 5F8-1) VH: EVQLVESGGGLVQPGGSLRLSCAASGFTFSSYWMHWVRQAPGKGLVWVSRIISDGSSTGYADSVKGRFTISRDNAKNTLYLQMNSLRAEDTAVYYCAREFSSGWYFDYWGQGTLVTVSS VL: AIQLTQSPSSLSASVGDRVTITCRASQGISSALAWYQQKPGKAPKLLIYDASSLESGVPSRFSGSGSGTDFTLTISSLQPEDFATYYCQQFSSYPRTFGQGTKVEIKR', 'koff', 0.006);

Okay, next one:
**Query** Name the recorded koff of the binder listed here: 24H2 (antibody, human IgG4, kappa, V domains shown, also called 24H2-1) VH: QVQLVESGGGVVQPGRSLRLSCAASGFTFSNYGMHWVRQAPGKGLEWVAVIWYDGGNKYYADSVKGRFTISRDNSKNTLFLQMNSLRAEDTAVYYCARGGSSWYPDAFDIWGQGTMVTVSS VL: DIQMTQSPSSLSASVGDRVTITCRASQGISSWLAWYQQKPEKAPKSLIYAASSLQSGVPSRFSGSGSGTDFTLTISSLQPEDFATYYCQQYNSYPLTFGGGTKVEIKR
**Result** 0.0032

Measured values drawn from patent US20190284293A1 for this set.
